- Test system: HeLa Kyoto
- RUN DESCRIPTION: solubility change mitosis vs G1/S (difference of NP-40 vs SDS log2 ratios) (log2 ratio difference); higher = more soluble in mitosis
# solubility change mitosis (log2) listing for each entry below
Answer using only a numeral; do not append any unit.

MAATALLEAGLARVLFYPTLLYTLFRGKVPGRAHRDWYHRIDPTVLLGALPLRSLTRQLVQDENVRGVITMNEEYETRFLCNSSQEWKRLGVEQLRLSTVDMTGIPTLDNLQKGVQFALKYQSLGQCVYVHCKAGRSRSATMVAAYLIQVHKWSPEEAVRAIAKIRSYIHIRPGQLDVLKEFHKQITARATKDGTFVISKT [PTPMT1]; -0.0676
MAGALVRKAADYVRSKDFRDYLMSTHFWGPVANWGLPIAAINDMKKSPEIISGRMTFALCCYSLTFMRFAYKVQPRNWLLFACHATNEVAQLIQGGRLIKHEMTKTASA [MPC1]; -0.165
MSSKKAKTKTTKKRPQRATSNVFAMFDQSQIQEFKEAFNMIDQNRDGFIDKEDLHDMLASLGKNPTDAYLDAMMNEAPGPINFTMFLTMFGEKLNGTDPEDVIRNAFACFDEEATGTIQEDYLRELLTTMGDRFTDEEVDELYREAPIDKKGNFNYIEFTRILKHGAKDKDD [MYL12B]; 0.538
MANRTVKDAHSIHGTNPQYLVEKIIRTRIYESKYWKEECFGLTAELVVDKAMELRFVGGVYGGNIKPTPFLCLTLKMLQIQPEKDIIVEFIKNEDFKYVRMLGALYMRLTGTAIDCYKYLEPLYNDYRKIKSQNRNGEFELMHVDEFIDELLHSERVCDIILPRLQKRYVLEEAEQLEPRVSALEEDMDDVESSEEEEEEDEKLERVPSPDHRRRSYRDLDKPRRSPTLRYRRSRSRSPRRRSRSPKRRSPSPRRERHRSKSPRRHRSRSRDRRHRSRSKSPGHHRSHRHRSHSKSPERSKKSHKKSRRGNE [PRPF38A]; 0.372
MESALPAAGFLYWVGAGTVAYLALRISYSLFTALRVWGVGNEAGVGPGLGEWAVVTGSTDGIGKSYAEELAKHGMKVVLISRSKDKLDQVSSEIKEKFKVETRTIAVDFASEDIYDKIKTGLAGLEIGILVNNVGMSYEYPEYFLDVPDLDNVIKKMININILSVCKMTQLVLPGMVERSKGAILNISSGSGMLPVPLLTIYSATKTFVDFFSQCLHEEYRSKGVFVQSVLPYFVATKLAKIRKPTLDKPSPETFVKSAIKTVGLQSRTNGYLIHALMGSIISNLPSWIYLKIVMNMNKSTRAHYLKKTKKN [HSD17B12]; -0.194

Recorded solubility change mitosis (log2) (sequence MLAARLVCLRTLPSRVFHPAFTKASPVVKNSITKNQWLLTPSREYATKTRIGIRRGRTGQELKEAALEPSMEKIFKIDQMGRWFVAGGAAVGLGALCYYGLGLSNEIGAIEKAVIWPQYVKDRIHSTYMYLAGSIGLTALSAIAISRTPVLMNFMMRGSWVTIGVTFAAMVGAGMLVRSIPYDQSPGPKHLAWLLHSGVMGAVVAPLTILGGPLLIRAAWYTAGIVGGLSTVAMCAPSEKFLNMGAPLGVGLGLVFVSSLGSMFLPPTTVAGATLYSVAMYGGLVLFSMFLLYDTQKVIKRAEVSPMYGVQKYDPINSMLSIYMDTLNIFMRVATMLATGGNRKK [GHITM] ): 0.0227

Reported solubility change mitosis (log2) ( MAGPRVEVDGSIMEGGGQILRVSTALSCLLGLPLRVQKIRAGRSTPGLRPQHLSGLEMIRDLCDGQLEGAEIGSTEITFTPEKIKGGIHTADTKTAGSVCLLMQVSMPCVLFAASPSELHLKGGTNAEMAPQIDYTVMVFKPIVEKFGFIFNCDIKTRGYYPKGGGEVIVRMSPVKQLNPINLTERGCVTKIYGRAFVAGVLPFKVAKDMAAAAVRCIRKEIRDLYVNIQPVQEPKDQAFGNGNGIIIIAETSTGCLFAGSSLGKRGVNADKVGIEAAEMLLANLRHGGTVDEYLQDQLIVFMALANGVSRIKTGPVTLHTQTAIHFAEQIAKAKFIVKKSEDEEDAAKDTYIIECQGIGMTNPNL [RTCA] ) = -0.173

Reported solubility change mitosis (log2) of MEGGFGSDFGGSGSGKLDPGLIMEQVKVQIAVANAQELLQRMTDKCFRKCIGKPGGSLDNSEQKCIAMCMDRYMDAWNTVSRAYNSRLQRERANM [TIMM13] : 0.337

====

- System: HeLa Kyoto
- RUN DESCRIPTION: solubility change mitosis vs G1/S (difference of NP-40 vs SDS log2 ratios) (log2 ratio difference); higher = more soluble in mitosis
ENDPOINT NAME: solubility change mitosis (log2)
Answer with a number only.

// MASIWVGHRGTVRDYPDFSPSVDAEAIQKAIRGIGTDEKMLISILTERSNAQRQLIVKEYQAAYGKELKDDLKGDLSGHFEHLMVALVTPPAVFDAKQLKKSMKGAGTNEDALIEILTTRTSRQMKDISQAYYTVYKKSLGDDISSETSGDFRKALLTLADGRRDESLKVDEHLAKQDAQILYKAGENRWGTDEDKFTEILCLRSFPQLKLTFDEYRNISQKDIVDSIKGELSGHFEDLLLAIVNCVRNTPAFLAERLHRALKGIGTDEFTLNRIMVSRSEIDLLDIRTEFKKHYGYSLYSAIKSDTSGDYEITLLKICGGDD [ANXA3] : solubility change mitosis (log2) value = -0.0404

====

Listing of entries alongside the reported thermal stability score.
- Test system: HeLa Kyoto
- RUN DESCRIPTION: thermal stability score vs G1/S (z-score of summed log2 fold changes over temperatures); higher = more thermally stable than in G1/S
- DETAILS: cell cycle stage: mitosis
Keep it simple and answer with nothing but the number.

Field: example entries. Status: answers known.
ARHGAP21; 0.748
MSSSVEQKKGPTRQRKCGFCKSNRDKECGQLLISENQKVAAHHKCMLFSSALVSSHSDNESLGGFSIEDVQKEIKRGTKLMCSLCHCPGATIGCDVKTCHRTYHYHCALHDKAQIREKPSQGIYMVYCRKHKKTAHNSEADLEESFNEHELEPSSPKSKKKSRKGRPRKTNFKGLSEDTRSTSSHGTDEMESSSYRDRSPHRSSPSDTRPKCGFCHVGEEENEARGKLHIFNAKKAAAHYKCMLFSSGTVQLTTTSRAEFGDFDIKTVLQEIKRGKRMKCTLCSQPGATIGCEIKACVKTYHYHCGVQDKAKYIENMSRGIYKLYCKNHSGNDERDEEDEERESKSRGKVEIDQQQLTQQQLNGN [PHF6]; 1.95
MARSVRVLVDMDGVLADFEAGLLRGFRRRFPEEPHVPLEQRRGFLAREQYRALRPDLADKVASVYEAPGFFLDLEPIPGALDAVREMNDLPDTQVFICTSPLLKYHHCVGEKYRWVEQHLGPQFVERIILTRDKTVVLGDLLIDDKDTVRGQEETPSWEHILFTCCHNRHLVLPPTRRRLLSWSDNWREILDSKRGAAQRE [NT5C]; -1.24
MAKAYDHLFKLLLIGDSGVGKTCLIIRFAEDNFNNTYISTIGIDFKIRTVDIEGKKIKLQVWDTAGQERFKTITTAYYRGAMGIILVYDITDEKSFENIQNWMKSIKENASAGVERLLLGNKCDMEAKRKVQKEQADKLAREHGIRFFETSAKSSMNVDEAFSSLARDILLKSGGRRSGNGNKPPSTDLKTCDKKNTNKCSLG [RAB13]; -1.07
MEALILEPSLYTVKAILILDNDGDRLFAKYYDDTYPSVKEQKAFEKNIFNKTHRTDSEIALLEGLTVVYKSSIDLYFYVIGSSYENELMLMAVLNCLFDSLSQMLRKNVEKRALLENMEGLFLAVDEIVDGGVILESDPQQVVHRVALRGEDVPLTEQTVSQVLQSAKEQIKWSLLR [COPZ1]; -1.52
MLPAALLRRPGLGRLVRHARAYAEAAAAPAAASGPNQMSFTFASPTQVFFNGANVRQVDVPTLTGAFGILAAHVPTLQVLRPGLVVVHAEDGTTSKYFVSSGSIAVNADSSVQLLAEEAVTLDMLDLGAAKANLEKAQAELVGTADEATRAEIQIRIEANEALVKALE [ATP5D]; -1.13
MPLENLEEEGLPKNPDLRIAQLRFLLSLPEHRGDAAVRDELMAAVRDNNMAPYYEALCKSLDWQIDVDLLNKMKKANEDELKRLDEELEDAEKNLGESEIRDAMMAKAEYLCRIGDKEGALTAFRKTYDKTVALGHRLDIVFYLLRIGLFYMDNDLITRNTEKAKSLIEEGGDWDRRNRLKVYQGLYCVAIRDFKQAAELFLDTVSTFTSYELMDYKTFVTYTVYVSMIALERPDLREKVIKGAEILEVLHSLPAVRQYLFSLYECRYSVFFQSLAVVEQEMKKDWLFAPHYRYYVREMRIHAYSQLLESYRSLTLGYMAEAFGVGVEFIDQELSRFIAAGRLHCKIDKVNEIVETNRPDSKNWQYQETIKKGDLLLNRVQKLSRVINM [PSMD6]; 1.09
MAEPTVCSFLTKVLCAHGGRMFLKDLRGHVELSEARLRDVLQRAGPERFLLQEVETQEGLGDAEAEAAAGAVGGGGTSAWRVVAVSSVRLCARYQRGECQACDQLHFCRRHMLGKCPNRDCWSTCTLSHDIHTPVNMQVLKSHGLFGLNENQLRILLLQNDPCLLPEVCLLYNKGEALYGYCNLKDKCNKFHVCKSFVKGECKLQTCKRSHQLIHAASLKLLQDQGLNIPSVVNFQIISTYKHMKLHKMLENTDNSSPSTEHSQGLEKQGVHAAGAAEAGPLASVPAQSAKKPCPVSCEK [ZC3HAV1L]; -0.0104
MVKLAAKCILAGDPAVGKTALAQIFRSDGAHFQKSYTLTTGMDLVVKTVPVPDTGDSVELFIFDSAGKELFSEMLDKLWESPNVLCLVYDVTNEESFNNCSKWLEKARSQAPGISLPGVLVGNKTDLAGRRAVDSAEARAWALGQGLECFETSVKEMENFEAPFHCLAKQFHQLYREKVEVFRALA [IFT27]; -0.857
MLLSLVLHTYSMRYLLPSVVLLGTAPTYVLAWGVWRLLSAFLPARFYQALDDRLYCVYQSMVLFFFENYTGVQILLYGDLPKNKENIIYLANHQSTVDWIVADILAIRQNALGHVRYVLKEGLKWLPLYGCYFAQHGGIYVKRSAKFNEKEMRNKLQSYVDAGTPMYLVIFPEGTRYNPEQTKVLSASQAFAAQRGLAVLKHVLTPRIKATHVAFDCMKNYLDAIYDVTVVYEGKDDGGQRRESPTMTEFLCKECPKIHIHIDRIDKKDVPEEQEHMRRWLHERFEIKDKMLIEFYESPDPERRKRFPGKSVNSKLSIKKTLPSMLILSGLTAGMLMTDAGRKLYVNTWIYGTLLGCLWVTIKA [AGPAT5]; -1.01

Attention now shifts to the item below.
Short answer for MVLSELAARLNCAEYKNWVKAGHCLLLLRSCLQGFVGREVLSFHRGLLAAAPGLGPRAVCRGGSRCSPRARQFQPQCQVCAEWKREILRHHVNRNGDVHWGNCRPGRWPVDAWEVAKAFMPRGLADKQGPEECDAVALLSLINSCDHFVVDRKKVTEVIKCRNEIMHSSEMKVSSTWLRDFQMKIQNFLNEFKNIPEIVAVYSRIEQLLTSDWAVHIPEEDQRDGCECEMGTYLSESQVNEIEMQLLKEKLQEIYLQAEEQEVLPEELSNRLEVVKEFLRNNEDLRNGLTEDMQKLDSLCLHQKLDSQEPGRQTPDRKA [CXORF38] : thermal stability score was 2.18
